assaySystem: P70S6K (T412E mutant) (Homo sapiens (Human), UniProt P23443, T412E)
Sequence (P23443 whole entry T412E): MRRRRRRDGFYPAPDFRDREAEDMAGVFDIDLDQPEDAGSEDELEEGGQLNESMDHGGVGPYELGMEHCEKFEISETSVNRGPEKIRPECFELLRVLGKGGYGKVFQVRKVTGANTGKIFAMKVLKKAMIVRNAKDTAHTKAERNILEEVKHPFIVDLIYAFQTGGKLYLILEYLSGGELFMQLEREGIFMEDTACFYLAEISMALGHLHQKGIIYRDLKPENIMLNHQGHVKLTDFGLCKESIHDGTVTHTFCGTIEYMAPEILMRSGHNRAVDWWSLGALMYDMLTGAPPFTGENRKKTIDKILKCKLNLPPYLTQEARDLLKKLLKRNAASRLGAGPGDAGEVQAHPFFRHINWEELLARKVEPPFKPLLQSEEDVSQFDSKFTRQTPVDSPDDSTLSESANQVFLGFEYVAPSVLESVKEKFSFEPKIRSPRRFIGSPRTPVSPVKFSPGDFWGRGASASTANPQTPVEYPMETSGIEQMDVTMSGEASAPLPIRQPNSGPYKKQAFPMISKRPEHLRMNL
runDescription: P70S6K enzyme assay
Format: biochemical
testParameters: read-out: IC50 p70S6K
Experimental: P70S6K inhibitor compounds are diluted and plated in 96 well plates. […] The reaction is incubated for 90 min at 25° C., before the addition of 10 mM EDTA to stop the reaction. The proportion of substrate and product (phosphorylated) peptide is analysed on a Caliper Life Sciences Lab Chip 3000, using a pressure of −1.4 psi, and upstream and downstream voltages of −3000 and −700 respectively. Product peaks are resolved before substrate peaks on the resulting chromatograms.
recordedMetric: IC50 (nM)

# annotated cases, reported IC50 shown
Nc1cc(N2CCC(c3nc(-c4cccc(F)c4)cn3CCN3CCCC3)CC2)ncn1 = 25
Cn1cc(-c2ccc(F)c(C(F)(F)F)c2)nc1C1CCN(c2ncnc(N)c2CO)CC1 = 2.2
N#Cc1c(N)ncnc1N1CCC(c2nc(-c3ccc(F)c(C(F)(F)F)c3)cn2CCN2CCCC2)CC1 = 1.9
Cc1cc(-c2cn(CCN(C)C)c(C3CCN(c4ncnc(N)c4C#N)CC3)n2)ccc1F = 0.5
N#Cc1c(N)ncnc1N1CCC(c2nc(-c3ccc(F)c(C(F)(F)F)c3)cn2CCN2CCCCC2)CC1 = 1.9

1 = CCc1cc(-c2cn(CCN3CCC3)c(C3CCN(c4ncnc(N)c4C#N)CC3)n2)ccn1
2 = Cn1cc(-c2ccc(F)c(C(F)(F)F)c2)nc1C1CCN(c2ncnc(N)c2C=O)CC1
## Task Which of the two items, 1 and 2 , has the greater recorded IC50? // return label of chosen record
## Result 1

I = Nc1ncnc(N2CCC(c3nc(-c4ccc(F)c(Cl)c4)cn3CCN3CCCC3)CC2)c1C1CCC1
II = CCc1c(N)ncnc1N1CCC(c2nc(-c3ccc(C(F)(F)F)cc3)cn2CCN2CCCC2)CC1
III = COc1ccc(-c2cn(CCN3CCC3)c(C3CCN(c4ncnc(N)c4C(N)=O)CC3)n2)cc1Cl
## Task Parameters: sort_field (IC50), sort_dir (desc). Answer by listing the labels in the order asked for.
## Result III, II, I
(III: 87 nM, II: 12 nM, I: 4 nM)

a = Cc1ccc(-c2cn(CCN3CCC3)c(C3CCN(c4ncnc(N)c4C(N)=O)CC3)n2)cc1Cl
b = NC(=O)c1c(N)ncnc1N1CCC(c2nc(-c3ccccc3)cn2CCN2CCC2)CC1
## Task Lower value of IC50 belongs to which: a or b ? // return label of chosen record
## Result a

a = CC(C)Oc1c(N)ncnc1N1CCC(c2nc(-c3ccc(F)c(C(F)(F)F)c3)cn2CCN(C)C)CC1
b = CCOc1c(N)ncnc1N1CCC(c2nc(-c3ccc(F)c(C)c3)cn2CC2CNC2)CC1
## Task Lower value of IC50 belongs to which: a or b ? // return label of chosen record
## Result b

I = CCc1c(N)ncnc1N1CCC(c2nc(-c3ccc(C(F)(F)F)c(F)c3)cn2CCN2CCCC(F)C2)CC1 (stereo not shown)
II = CCc1c(N)ncnc1N1CCC(c2nc(-c3ccnc(C(F)(F)F)c3)cn2CCNC)CC1
## Task Lower value of IC50 belongs to which: I or II ? // return label of chosen record
## Result II

====

assaySystem: His-AKT (Full Length) (Homo sapiens (Human), UniProt P31749)
Sequence (P31749 whole entry): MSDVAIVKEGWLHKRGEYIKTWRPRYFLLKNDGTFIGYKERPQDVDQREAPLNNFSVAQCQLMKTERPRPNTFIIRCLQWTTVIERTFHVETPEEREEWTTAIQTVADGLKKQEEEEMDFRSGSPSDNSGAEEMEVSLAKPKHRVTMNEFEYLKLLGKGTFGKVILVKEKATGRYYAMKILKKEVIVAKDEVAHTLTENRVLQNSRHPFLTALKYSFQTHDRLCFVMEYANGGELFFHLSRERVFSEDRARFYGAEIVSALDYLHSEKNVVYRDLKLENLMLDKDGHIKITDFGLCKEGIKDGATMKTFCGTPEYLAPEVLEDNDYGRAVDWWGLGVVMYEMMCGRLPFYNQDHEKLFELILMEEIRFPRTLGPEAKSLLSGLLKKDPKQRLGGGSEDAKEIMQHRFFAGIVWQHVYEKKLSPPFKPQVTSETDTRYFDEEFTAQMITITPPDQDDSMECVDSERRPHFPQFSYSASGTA
runDescription: AKT enzyme assay
Type: biochemical
testParameters: read-out: IC50 AKT
recordedMetric: IC50 (nM)

# annotated cases, reported IC50 shown
CCc1c(N)ncnc1N1CCC(c2nc(-c3cccc(F)c3)cn2CCN2CCC2)CC1 = 79.5
NC(=O)c1c(N)ncnc1N1CCC(c2nc(-c3ccc(F)c(C(F)(F)F)c3)cn2CCNCC2CC2)CC1 = 12
CN(C)CCN(C)CCn1cc(-c2ccc(F)c(C(F)(F)F)c2)nc1C1CCN(c2ncnc(N)c2C(N)=O)CC1 = 730

1 = CNc1ncnc(N2CCC(c3nc(-c4ccnc(C(F)(F)F)c4)cn3CCN3CCC3)CC2)c1Cl
2 = CCc1c(N)ncnc1N1CCC(c2nc(-c3ccc(F)c(F)c3)cn2CCN2CCCC2)CC1
3 = Cn1cc(-c2ccc(F)c(C(F)(F)F)c2)nc1C1CCN(c2ncnc(N)c2-c2cccnc2)CC1
4 = CC(C)c1cc(-c2cn(CCN3CCC3)c(C3CCN(c4ncnc(N)c4Br)CC3)n2)ccn1
5 = Cc1cc(-c2cn(CCNC3CCCC3)c(C3CCN(c4ncnc(N)c4C(N)=O)CC3)n2)ccc1F
## Task Please put the entries in order of rising IC50. Answer by listing the labels in the order asked for.
## Result 4, 5, 2, 3, 1
(4: 0.15 nM, 5: 5.6 nM, 2: 8.2 nM, 3: 880 nM, 1: 7200 nM)

====

assaySystem: P70S6K (T412E mutant) (Homo sapiens (Human), UniProt P23443, T412E)
runDescription: P70S6K enzyme assay
Assay type: biochemical
testParameters: read-out: IC50 p70S6K
recordedMetric: IC50 (nM)

Cn1cc(-c2ccc(F)c(C(F)(F)F)c2)nc1C1CCN(c2ncnc(N)c2-c2ccc(F)c(F)c2)CC1 = 6.3
Nc1ncnc(N2CCC(c3nc(-c4ccc(F)c(F)c4)cn3CCN3CCCC3)CC2)c1Br = 1.3
CN(C)CCN(C)CCn1cc(-c2ccc(F)c(C(F)(F)F)c2)nc1C1CCN(c2ncnc(N)c2C#N)CC1 = 4.1
Nc1cc(N2CCC(c3nc(-c4ccc(F)c(F)c4)cn3CCN3CCCC3)CC2)ncn1 = 18
NC(=O)c1c(N)ncnc1N1CCC(c2nc(-c3ccc(F)cc3)cn2CCN2CCCC2)CC1 = 21

1 = Cn1cc(-c2ccc(F)c(C(F)(F)F)c2)nc1C1CCN(c2ncnc(N)c2-c2ccccc2)CC1
2 = CCc1c(N)ncnc1N1CCC(c2nc(-c3ccc(F)c(F)c3)cn2CCN2CC(F)C2)CC1
## Task Which of the two items, 1 and 2 , has the greater recorded IC50? // return label of chosen record
## Result 2

A = CCc1c(N)ncnc1N1CCC(c2nc(-c3cncc(C(F)(F)F)c3)cn2CCN2CCC2)CC1
B = Cc1cc(-c2cn(CCN(C)C)c(C3CCN(c4ncnc(N)c4-c4cn[nH]c4)CC3)n2)ccc1F
## Task Lower value of IC50 belongs to which: A or B ? // return label of chosen record
## Result B
(B: 0.73 nM, A: 4.5 nM)

I = CCc1c(N)ncnc1N1CCC(c2nc(-c3ccc(F)c(F)c3)cn2CCN2CC3(COC3)C2)CC1
II = CCc1c(N)ncnc1N1CCC(c2nc(-c3cccc(OC(F)(F)F)c3)cn2CCN2CCC2)CC1
## Task Lower value of IC50 belongs to which: I or II ? // return label of chosen record
## Result II
(II: 2.3 nM, I: 11 nM)

P = NC(=O)c1c(N)ncnc1N1CCC(c2nc(C3CCCCC3)cn2CCN2CCC2)CC1
Q = CNCCn1cc(-c2ccc(F)c(C(F)(F)F)c2)nc1C1CCN(c2ncnc(N)c2C#N)CC1
R = CCN(CC)CCn1cc(-c2ccc(F)c(C)c2)nc1C1CCN(c2ncnc(N)c2C(N)=O)CC1
S = CN(C)CCn1cc(-c2ccc(F)c(C(F)(F)F)c2)nc1C1CCN(c2ncnc(N)c2-c2ccc(C(C)(C)O)cc2)CC1
## Task Parameters: sort_field (IC50), sort_dir (desc). Answer by listing the labels in the order asked for.
## Result P, R, S, Q

====

assaySystem: P70S6K (T412E mutant) (Homo sapiens (Human), UniProt P23443, T412E)
runDescription: P70S6K enzyme assay
Type: biochemical
testParameters: read-out: IC50 p70S6K
recordedMetric: IC50 (nM)

# annotated cases, reported IC50 shown
COC(=O)c1ccc(-c2c(N)ncnc2N2CCC(c3nc(-c4ccc(F)c(C(F)(F)F)c4)cn3CCN(C)C)CC2)cc1 = 8.1
Cn1cc(-c2ccc(F)c(C(F)(F)F)c2)nc1C1CCN(c2ncnc(N)c2-c2ccc(C#N)c(F)c2)CC1 = 5
Cn1cc(-c2ccc(F)c(C(F)(F)F)c2)nc1C1CCN(c2ncnc(N)c2-c2cccc(F)c2)CC1 = 1.6

A = Cc1ccc(-c2c(N)ncnc2N2CCC(c3nc(-c4ccc(F)c(C(F)(F)F)c4)cn3C)CC2)cc1
B = C=Cc1c(N)ncnc1N1CCC(c2nc(-c3ccc(C(F)(F)F)c(F)c3)cn2CCN2CCCC2)CC1
C = Nc1ncnc(N2CCC(c3nc(-c4ccc(F)c(Cl)c4)cn3CCN3CCCC3)CC2)c1Br
D = CCc1c(N)ncnc1N1CCC(c2nc(-c3ccc(F)c(C(N)=O)c3)cn2CCN2CCC2)CC1
## Task Please put the entries in order of rising IC50. Answer by listing the labels in the order asked for.
## Result C, B, A, D
(C: 1.4 nM, B: 4.4 nM, A: 7.3 nM, D: 21 nM)
